Tested on: Tyrosine-protein kinase ABL1 (Homo sapiens), P00519 [H396P]
Settings: at 1 µM
Reported inhibition values for the following compounds.

- Compound: "Nc1ccc(C#Cc2cncnc2Nc2ccc(OCc3cccc(F)c3)c(Cl)c2)cc1"
  Target Or System: "Tyrosine-protein kinase ABL1 (Homo sapiens), P00519 [H396P]"
  inhibition: "2.72%"
- Compound: "Cc1nc(-c2ccccc2)n2nc(NCCCN3CCOCC3)ncc12"
  Target Or System: "Tyrosine-protein kinase ABL1 (Homo sapiens), P00519 [H396P]"
  inhibition: "4.26%"
- Compound: "COc1cc2ncnc(Nc3ccc4c(cnn4Cc4ccccc4)c3)c2cc1OC"
  Target Or System: "Tyrosine-protein kinase ABL1 (Homo sapiens), P00519 [H396P]"
  inhibition: "6.16%"
- Compound: "Oc1cccc(-c2nc(-c3ccccc3)[nH]c2-c2ccncc2)c1"
  Target Or System: "Tyrosine-protein kinase ABL1 (Homo sapiens), P00519 [H396P]"
  inhibition: "36.6%"
- Compound: "COc1cccc(-n2nc(C)c3c(N/N=C(\\C)c4ccncc4)ncnc32)c1"
  Target Or System: "Tyrosine-protein kinase ABL1 (Homo sapiens), P00519 [H396P]"
  inhibition: "4.07%"

In: Checklist item: inhibition tested on Tyrosine-protein kinase ABL1 (Homo sapiens), P00519 [H396P], entry NS(=O)(=O)c1ccc(N/N=C2\C(=O)Nc3ccc(Cl)cc32)cc1 , value?
Out: 12.9%

In: Cool, now COC(=O)c1ccc2c(c1)C(=Cc1cc(Br)c(O)c(Br)c1)C(=O)N2
Out: 14.9%

In: Cool, now N#Cc1cccc(Nc2nccc(-c3cnn4ncccc34)n2)c1
Out: 51.8%

In: Cool, now CCCN1CCCC(c2ccc(Nc3nc(Nc4cc(F)ccc4C(N)=O)c4cc[nH]c4n3)c(OC)c2)C1 (stereo unspecified)
Out: 4.96%

In: Cool, now CCS(=O)(=O)c1ccc(OC)c(Nc2nccc(N(C)c3ccc4c(C)n[nH]c4c3)n2)c1
Out: 90.5%

In: Cool, now CS(=O)(=O)CCNCc1nc(-c2ccc3ncnc(Nc4ccc(OCc5cccc(C(F)(F)F)c5)cc4)c3c2)cs1
Out: 2.31%

In: Cool, now COc1ccc(-c2nn3ncccc3c2-c2ccnc(Nc3cccc(C(F)(F)F)c3)n2)cc1
Out: 7.02%

In: Cool, now Nc1nccc(C#Cc2cncnc2Nc2ccc(OCc3cccc(F)c3)c(Cl)c2)n1
Out: 2.76%
